- System: CEM cells HIV-1 protection, formazan growth assay
- TEST SUMMARY: NCI AIDS Antiviral Assay;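 active = compounds giving half or more protection of infected cells from virus-caused growth loss, again on retest; inactive = the rest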
Thanks in advance; please answer with one of these: Yes for active, No for inactive

Problem: Look up the recorded call for CC1(C)CCCC2CC2CCC(C)(C)C1=O (stereo not drawn) in this test.
Result: No

Problem: Look up the recorded call for `COC(=O)C(=O)/C=C(/O)c1ccc(OC)cc1` in this test.
Result: No

Problem: Look up the recorded call for O=C1c2ccccc2C(=O)N1N1CC1Br (stereo not drawn) in this test.
Result: No

Problem: Look up the recorded call for `O=c1c2ccccc2nc(-c2ccccc2)n1NC(=S)Nc1ccc(Cl)cc1` in this test.
Result: No

Problem: Look up the recorded call for `O=C1/C(=C/c2cccc([N+](=O)[O-])c2)Sc2scc(-c3ccc([N+](=O)[O-])cc3)[n+]21` in this test.
Result: No

Problem: Look up the recorded call for `C#CC(C)(C)Oc1cc(OC)c2c(=O)c3ccccc3n(C)c2c1` in this test.
Result: No

Problem: Look up the recorded call for `CCOC(=O)/C(=C\c1c(C)[nH]c2ccccc12)P(=O)(OCC)OCC` in this test.
Result: Yes

Problem: Look up the recorded call for `O=C(O)CCCCCCCCCCCBr` in this test.
Result: Yes

Problem: Look up the recorded call for `O=CN/C=C/c1cc(O)ccc1O` in this test.
Result: No

Problem: Look up the recorded call for CC(C)[C@H]1CO[C@@H]2O[C@H](C)C(C)C(=O)N21 (stereo partly drawn) in this test.
Result: No

Problem: Look up the recorded call for `C[n+]1c(-c2ccc(/C=N/NC(=S)N/N=C/c3ccc(-c4cn5ccccc5[n+]4C)cc3)cc2)cn2ccccc21` in this test.
Result: Yes

Problem: Look up the recorded call for `CCOC(=O)c1cn(-c2ccccc2)c(=S)n2c1nc1ccccc12` in this test.
Result: No

Problem: Look up the recorded call for COC(=O)c1c2c(cc3c1CC1(C3)Cc3ccc4c(c3C1=O)CCC4)CCC2 (stereo not drawn) in this test.
Result: No

Problem: Look up the recorded call for `Cc1occc1C(=S)Nc1ccc(Cl)c(C(=O)OC2CCCC2)c1` in this test.
Result: Yes

Problem: Look up the recorded call for `O=C(O)C1(C(=O)O)CCC1.[NH2-].[NH2-].[Pt+2]` in this test.
Result: No

Problem: Look up the recorded call for `CN(c1ccccc1)S(=O)(=O)c1ccccc1[N+](=O)[O-]` in this test.
Result: No

Problem: Look up the recorded call for `O=C(CC(=O)Nc1cccc(Cl)c1)NNCC(=O)Nc1nnc(-c2ccccc2)s1` in this test.
Result: No

Problem: Look up the recorded call for `OCCNNCCO` in this test.
Result: No

Problem: Look up the recorded call for `NNC(=O)CCC(=O)Nc1cc(Cl)c(Cl)cc1Cl` in this test.
Result: No

Problem: Look up the recorded call for `C1=NCCNc2nc3ccccc3cc2C=NCCNc2nc3ccccc3cc21` in this test.
Result: No

Problem: Look up the recorded call for `O=c1[nH]cnc2c1nnn2CCCCCCCCCCCCn1nnc2c(=O)[nH]cnc21` in this test.
Result: No

Problem: Look up the recorded call for `Cc1cn([C@@H]2C[C@H](CO)[C@@H]2O)c(=O)[nH]c1=O` in this test.
Result: No

###

Exercise: state measured IC50 for each of the compounds provided.
- Test system: CEM cells HIV-1 protection, formazan growth assay
- TEST SUMMARY: NCI AIDS Antiviral Assay
- MEASUREMENT CONDITIONS: measured here: growth of uninfected CEM cells
Where a SMILES comes first, the peptide text is derived from it. Side-chain parts run from the residue outwards. The star is where a group is joined. Cbz = O=C(OCc1ccccc1)*; Boc = CC(C)(C)OC(=O)*

Problem: Specify reported IC50 for the compound shown: `COc1ccc(Nc2nc3c([nH]2)c(=O)n(C)c(=O)n3C)cc1`
Result: > 200 µM

Problem: Specify reported IC50 for the compound shown: `COc1ccc(SSc2ccc(OC)cc2C(=O)O)c(C(=O)O)c1`
Result: > 200 µM

Problem: Specify reported IC50 for the compound shown: `O=C1C=C(Nc2ccccc2C(=O)c2ccccc2)c2ccccc2C1=O`
Result: > 2.95 µM

Problem: Specify reported IC50 for the compound shown: `Nc1ncnc2c1ncn2CC(=O)NCCCCO`
Result: > 200 µM

Problem: Specify reported IC50 for the compound shown: CC(C)(C)C(=O)OCC1CCC(n2cnc3c(=O)[nH]c(N)nc32)O1 (stereo not given)
Result: > 15.5 µM

Problem: Specify reported IC50 for the compound shown: CC1(C)/C(=N\Nc2ccc([N+](=O)[O-])cc2[N+](=O)[O-])C2CCC1C2 (stereo not given)
Result: > 200 µM

Problem: Specify reported IC50 for the compound shown: `O=C=Nc1cccc(S(=O)(=O)c2cccc(N=C=O)c2)c1`
Result: > 200 µM

Problem: Specify reported IC50 for the compound shown: `ClCCc1ccccc1CC1=NCCc2ccccc21`
Result: 36.3 µM

Problem: Specify reported IC50 for the compound shown: `CC(C)N=c1sc(-c2ccccc2)c(C#N)c(=O)n1C(C)C`
Result: 55 µM

Problem: Specify reported IC50 for the compound shown: `S=C1Cc2c(-c3ccc(Cl)cc3)cc(-c3ccccc3)nc2-c2ccccc2N1`
Result: 20.9 µM

Problem: Specify reported IC50 for the compound shown: `CC(=O)NNC(=S)/N=C\c1c(O)[nH]c(=O)[nH]c1=O`
Result: > 200 µM

Problem: Specify reported IC50 for the compound shown: CCCCCCCCCCCCCCCCCCOC(COP(=O)(O)OCC1OC(n2cc(C)c(=O)[nH]c2=O)CC1N=[N+]=[N-])COP(=O)(O)OC1CC(n2cc(C)c(=O)[nH]c2=O)OC1CO (stereo not given)
Result: 30.9 µM

Problem: Specify reported IC50 for the compound shown: CCCCCCCCCCCCCCCC(=O)Nc1ccn(C2CCC(COP(=O)(O)OC3CC(n4cc(C)c(=O)[nH]c4=O)OC3CO)O2)c(=O)n1 (stereo not given)
Result: 45.7 µM

Problem: Specify reported IC50 for the compound shown: `CC(C)(C)n1[nH]c(=O)n(C(C)(C)C)c1=O`
Result: > 200 µM

Problem: Specify reported IC50 for the compound shown: CCOC(=O)N1C2C=C(C)C(C3C(C)C(=O)N31)N(C(=O)c1ccccc1)O2 (stereo not given)
Result: > 355 µM

Problem: Specify reported IC50 for the compound shown: COc1cc(O)c2c(c1)C(O)C(O)CC1OC1C(=O)/C=C/CC(C)OC2=O (stereo not given)
Result: 0.977 µM

Problem: Specify reported IC50 for the compound shown: O=C1CSC(c2ccc([N+](=O)[O-])cc2)N1c1ccc(-c2ccc(-n3c(-c4ccccc4)nc4ccccc4c3=O)cc2)cc1 (stereo not given)
Result: 39.8 µM

Problem: Specify reported IC50 for the compound shown: `CCCCCCCCCC=C(c1cc(Br)cc(C(=O)O)c1O)c1cc(Br)cc(C(=O)O)c1O`
Result: > 22.9 µM

Problem: Specify reported IC50 for the compound shown: `CCOC(=O)Cc1csc(Nc2ccc(OCC)cc2)n1`
Result: 145 µM

Problem: Specify reported IC50 for the compound shown: CC(C)(C)OC(=O)NC(CCCCNC(=O)CNC(=O)OCc1ccccc1)C(=O)NC(CCCCNC(=O)CNC(=O)OCc1ccccc1)C(=O)NC(CCCCNC(=O)CNC(=O)OCc1ccccc1)C(=O)NC(CCCCNC(=O)CNC(=O)OCc1ccccc1)C(=O)O (stereo not given) (Boc-K([Gly-Cbz])K([Gly-Cbz])K([Gly-Cbz])K([Gly-Cbz])-OH; configuration not given here)
Result: > 100 µM

Problem: Specify reported IC50 for the compound shown: N#CC(/C(=N/NC(=O)C(=O)NN)C(=O)NC12CC3CC(CC(C3)C1)C2)c1ccccc1 (stereo not given)
Result: > 155 µM

Problem: Specify reported IC50 for the compound shown: `O=c1ccn2n1CCCCC2`
Result: > 200 µM

Problem: Specify reported IC50 for the compound shown: `O=C1CCCc2sccc21`
Result: > 200 µM

Problem: Specify reported IC50 for the compound shown: COc1cc2c(cc1OC)C(C1CC1)ON(C)CC2 (stereo not given)
Result: > 200 µM

Problem: Specify reported IC50 for the compound shown: `Nc1nc(CCC(=O)Nc2cccc(C(F)(F)F)c2)cc(-c2ccc3ccccc3c2)n1`
Result: > 575 µM

Problem: Specify reported IC50 for the compound shown: Nc1ccn(C2CC(F)C(CO)O2)c(=O)n1 (stereo not given)
Result: 427 µM

Problem: Specify reported IC50 for the compound shown: `COc1ccc(C2=C(OC(=O)N(C)C)c3cccn3-c3cc(Cl)ccc3S2)cc1`
Result: 87.1 µM

Problem: Specify reported IC50 for the compound shown: `CON(C)c1nc(N(C)OC)nc(N(C)OC)n1`
Result: > 200 µM

Problem: Specify reported IC50 for the compound shown: COc1ccc2c3c1OC1C4(OC)C=CC5(c6c(OC)ccc(O)c64)C(C2)N(C)CCC315 (stereo not given)
Result: 53.7 µM

Problem: Specify reported IC50 for the compound shown: `Cc1cc(C)nc(NS(=O)(=O)c2ccc(Nc3c4ccccc4nc4c(C(=O)N5CCN(CCO)CC5)ccc(Cl)c34)cc2)n1`
Result: > 34.7 µM

Problem: Specify reported IC50 for the compound shown: O=C1C=C/C(=C/C(O)COC(=O)c2ccccc2)O1 (stereo not given)
Result: 77.6 µM

Problem: Specify reported IC50 for the compound shown: `c1ccc2[nH]c(CSc3nc4ccccc4[nH]3)nc2c1`
Result: > 200 µM

Problem: Specify reported IC50 for the compound shown: `NCCCc1nonc1C(=O)O`
Result: > 200 µM

Problem: Specify reported IC50 for the compound shown: `Nc1c(Cl)ncnc1NCCO`
Result: > 200 µM

Problem: Specify reported IC50 for the compound shown: O=c1[nH]c(=S)c2cncnc2n1C1OC(CO)C(O)C1O (stereo not given)
Result: > 200 µM
